System: German cockroaches (Blatella Germanica)
TEST PROTOCOL: Cockroach repellency screening on partially treated formica surface (Example 2)
Format: in vivo
DETAILS: cockroaches; 20 mg/m^2 on formica; 2 days after treatment
Would you mind telling me the reported Percentage Dead of each entry?
Answers are plain numbers, in %.

In the examples that follow, each entry is paired with its recorded Percentage Dead.
>  <COMPOUND>
CCN(CC)C(=O)C1CC(C)CCC1C(C)C (stereo not drawn) [Compound 6, N,N-diethyl-p-menthane-3-carboxamide]

>  <UNIT TAG>
%

>  <Percentage Dead>
0

$$$$
>  <COMPOUND>
CCNC(=O)C1CC(C)CCC1C(C)C (stereo not drawn) [Compound 2, N-ethyl-p-menthane-3-carboxamide]

>  <UNIT TAG>
%

>  <Percentage Dead>
1.2

$$$$
>  <COMPOUND>
CNC(=O)C1CC(C)CCC1C(C)C (stereo not drawn) [Compound 1, N-methyl-p-menthane-3-carboxamide]

>  <UNIT TAG>
%

>  <Percentage Dead>
1.2

$$$$
>  <COMPOUND>
CCCNC(=O)C1CC(C)CCC1C(C)C (stereo not drawn) [Compound 3, N-propyl-p-menthane-3-carboxamide]

>  <UNIT TAG>
%

>  <Percentage Dead>
1.2

$$$$
>  <COMPOUND>
CC1CCC(C(C)C)C(C(=O)Nc2ccccc2)C1 (stereo not drawn) [Compound 4, N-phenyl-p-menthane-3-carboxamide]

>  <UNIT TAG>
%

>  <Percentage Dead>
0

$$$$

Here's the next entry for you.
Lab request: please report Percentage Dead under test system German cockroaches (Blatella Germanica) for CC1CCC(C(C)C)C(C(=O)N(C)C)C1 (stereo not drawn) [Compound 5, N,N-dimethyl-p-menthane-3-carboxamide]
1.2

These measurements were taken from patent US20040028714A1.
